Test: Metabolic stability test in liver S9
Assay type: in vitro ADME
Conditions: pH 7.4; unchanged form after 60 minutes at 37°C, human liver S9 2 mg protein/mL, LC/MS; read-out: Remaining rate in human liver S9 (%/60min)
Description: Human liver S9 (final concentration: 2 mg protein/mL), was suspended in 100 mM potassium phosphate buffer (pH 7.4, containing β-nicotinamide adenine dinucleotide phosphate: 1.3 mM, D-glucose-6- phosphate: 3.3 mM, magnesium chloride: 3.3 mM, glucose-6-phosphate dehydrogenase:0.4 U/mL). […] The solutions were centrifuged, and the concentration of the sample (unchanged form) in the supernatant was determined by high performance liquid chromatography/mass spectrometry (LC/MS). […]
experimental-endpoint: remaining at 1 h (%)
Numbers only here, please. The scale is %.

What the record says about CC(=O)N1CCC(OC(=O)c2ccc(OC(=O)CCCc3ccc(NC(=O)c4ccccc4-c4ccc(C(F)(F)F)cc4)c(C(=O)N(C)C)c3)cc2)CC1 : remaining at 1 h is 0

compound COC(=O)c1ccc(OC(=O)CCCc2ccc(NC(=O)c3ccccc3-c3ccc(C(F)(F)F)cc3)c(C(=O)N3CCCC3)c2)cc1 , remaining at 1 h observed: 0

So for CCOC(=O)c1cc(C)c(OC(=O)CCCc2ccc(NC(=O)c3ccc(C)nc3-c3ccc(C(F)(F)F)cc3)c(C(=O)N(C)C)c2)c(C(=O)OC)c1 , the logged remaining at 1 h turned out to be 4

Others:
So, COC(=O)c1cc(C)c(OC(=O)CCCc2ccc(NC(=O)c3ccc(C)nc3-c3ccc(C(F)(F)F)cc3)c(C(=O)N(C)C)c2)c(C)c1 ? Its remaining at 1 h was 0

So, CCOC(=O)c1cc(Cl)c(OC(=O)CCCc2ccc(NC(=O)c3ccc(C)nc3-c3ccc(C(F)(F)F)cc3)c(C(=O)N(C)C)c2)c(OC)c1 ? Its remaining at 1 h was 6

Summary for this compound, CCOC(=O)c1cc(OC)c(OC(=O)CCCc2ccc(NC(=O)c3ccc(C)nc3-c3ccc(C(F)(F)F)cc3)c(C(=O)N(C)C)c2)c(OC)c1 : remaining at 1 h is 2

* * *

Assay: Metabolic stability test in plasma
Assay type: in vitro ADME, human
Settings: unchanged form after 10 minutes at 37°C in human plasma, LC/MS; read-out: Remaining rate in human plasma (%/10min)
Response field class: string, computed from recorded remaining at 10 min by ranges low band: < 8%; middle band: ≥ 8% and < 50%; high band: ≥ 50%

Lookup: Which class holds COC(=O)c1ccc(OC(=O)CCCc2ccc(NC(=O)c3ccncc3-c3ccc(C(F)(F)F)cc3)c(C(=O)N(C)C)c2)cc1 ?
Found: low band

Lookup: Lab log: COC(=O)c1ccc(OC(=O)CN(C)Cc2ccc(NC(=O)c3ccccc3-c3ccc(C(F)(F)F)cc3)c(C(=O)N(C)C)c2)cc1 — assign remaining at 10 min category
Found: middle band

Lookup: State the band of COC(=O)c1ccc(OC(=O)CCCc2ccc(NC(=O)c3cccnc3-c3ccc(C(F)(F)F)cc3)c(C(=O)N(C)C)c2)cc1
Found: low band

More entries:
Lookup: Which category does the recorded remaining at 10 min put CN(C)C(=O)c1cc(CCCC(=O)Oc2ccc(C(=O)OCc3ccsc3)cc2)ccc1NC(=O)c1ccccc1-c1ccc(C(F)(F)F)cc1 in?
Found: low band

Lookup: Entry COC(=O)c1ccc(OC(=O)CCc2ccc(NC(=O)c3ccccc3-c3ccc(C(F)(F)F)cc3)c(C(=O)N(C)C)c2)cc1 belongs to which category?
Found: middle band

Lookup: Please report the category associated with Cc1cccc(COC(=O)c2ccc(OC(=O)CCCc3ccc(NC(=O)c4ccccc4-c4ccc(C(F)(F)F)cc4)c(C(=O)N(C)C)c3)cc2)n1 , nothing else.
Found: middle band

Lookup: Where would CC(C)OC(=O)c1ccc(OC(=O)CCCc2ccc(NC(=O)c3ccccc3-c3ccc(C(F)(F)F)cc3)c(C(=O)N(C)C)c2)cc1 land among the classes by reported remaining at 10 min?
Found: high band

Lookup: Kindly identify the class of COC(=O)c1ccc(OC(=O)CCCc2ccc(NC(=O)c3ccccc3-c3ccc(C(F)(F)F)cc3)c(C(=O)N(C)C)c2)c(C(C)C)c1 .
Found: high band

Lookup: Lab note: sort COC(=O)c1cc(C)c(OC(=O)CCCc2ccc(NC(=O)c3ccc(C)nc3-c3ccc(C(F)(F)F)cc3)c(C(=O)N(C)C)c2)c(Cl)c1 into the matching remaining at 10 min band.
Found: middle band
